// reported ΔTm for each item listed
# method.summary: Binding affinity to r(CGCAAAUUUGCG)2 RNA duplex (unknown origin) assessed as thermal stability by measuring change in melting temperature at 5 uM by UV-Vis spectrophotometry
Form entry: value (°C) — number only.

compound="CN1CCN(c2ccc3nc(-c4ccc5nc(-c6ccc(OCCCCCCCCc7cn(C[C@H]8O[C@@H](O[C@@H]9[C@@H](O)[C@H](N)C[C@H](N)[C@H]9O[C@H]9O[C@H](CN)[C@@H](O)[C@H](O)[C@H]9N)[C@H](O)[C@@H]8O[C@H]8OC(CN)[C@@H](O)[C@H](O)[C@H]8N)nn7)cc6)[nH]c5c4)[nH]c3c2)CC1 (some centres undefined)" observed_property=ΔTm endpoint_value=16.2
compound="CN1CCN(c2ccc3nc(-c4ccc5nc(-c6ccc(OCc7cn(C[C@H]8O[C@@H](O[C@@H]9[C@@H](O)[C@H](N)C[C@H](N)[C@H]9O[C@H]9O[C@H](CN)[C@@H](O)[C@H](O)[C@H]9N)[C@H](O)[C@@H]8O[C@H]8OC(CN)[C@@H](O)[C@H](O)[C@H]8N)nn7)cc6)[nH]c5c4)[nH]c3c2)CC1 (some centres undefined)" observed_property=ΔTm endpoint_value=9.1

IN: Return ΔTm (reported value) for this compound: CN1CCN(c2ccc3nc(-c4ccc5nc(-c6ccc(OCCCCc7cn(C[C@H]8O[C@@H](O[C@@H]9[C@@H](O)[C@H](N)C[C@H](N)[C@H]9O[C@H]9O[C@H](CN)[C@@H](O)[C@H](O)[C@H]9N)[C@H](O)[C@@H]8O[C@H]8OC(CN)[C@@H](O)[C@H](O)[C@H]8N)nn7)cc6)[nH]c5c4)[nH]c3c2)CC1 (some centres undefined)
OUT: 15.1

IN: Return ΔTm (reported value) for this compound: CN1CCN(c2ccc3nc(-c4ccc5nc(-c6ccc(OCCOCCOCCOCCOCCOCCOCc7cn(C[C@H]8O[C@@H](O[C@@H]9[C@@H](O)[C@H](N)C[C@H](N)[C@H]9O[C@H]9O[C@H](CN)[C@@H](O)[C@H](O)[C@H]9N)[C@H](O)[C@@H]8O[C@H]8OC(CN)[C@@H](O)[C@H](O)[C@H]8N)nn7)cc6)[nH]c5c4)[nH]c3c2)CC1 (some centres undefined)
OUT: 7.2

====

# method.summary: Binding affinity to d(CGCAAATTTGCG)2 DNA (unknown origin) assessed as thermal stability by measuring change in melting temperature by UV-Vis spectrophotometry
observed.property: ΔTm (°C)
Form entry: value (°C) — number only.

Use the examples below as a reference point.
compound="CN1CCN(c2ccc3nc(-c4ccc5nc(-c6ccc(OCc7cn(C[C@H]8O[C@@H](O[C@@H]9[C@@H](O)[C@H](N)C[C@H](N)[C@H]9O[C@H]9O[C@H](CN)[C@@H](O)[C@H](O)[C@H]9N)[C@H](O)[C@@H]8O[C@H]8OC(CN)[C@@H](O)[C@H](O)[C@H]8N)nn7)cc6)[nH]c5c4)[nH]c3c2)CC1 (stereo partly specified)" observed_property=ΔTm result_units=°C endpoint_value=23.8
compound="CN1CCN(c2ccc3nc(-c4ccc5nc(-c6ccc(OCCOCCOCCOCCOCCOCCOCc7cn(C[C@H]8O[C@@H](O[C@@H]9[C@@H](O)[C@H](N)C[C@H](N)[C@H]9O[C@H]9O[C@H](CN)[C@@H](O)[C@H](O)[C@H]9N)[C@H](O)[C@@H]8O[C@H]8OC(CN)[C@@H](O)[C@H](O)[C@H]8N)nn7)cc6)[nH]c5c4)[nH]c3c2)CC1 (stereo partly specified)" observed_property=ΔTm result_units=°C endpoint_value=16.4
compound="CN1CCN(c2ccc3nc(-c4ccc5nc(-c6ccc(OCCCCc7cn(C[C@H]8O[C@@H](O[C@@H]9[C@@H](O)[C@H](N)C[C@H](N)[C@H]9O[C@H]9O[C@H](CN)[C@@H](O)[C@H](O)[C@H]9N)[C@H](O)[C@@H]8O[C@H]8OC(CN)[C@@H](O)[C@H](O)[C@H]8N)nn7)cc6)[nH]c5c4)[nH]c3c2)CC1 (stereo partly specified)" observed_property=ΔTm result_units=°C endpoint_value=22.8
compound="CN1CCN(c2ccc3nc(-c4ccc5nc(-c6ccc(OCCCCCCCCOCc7cn(C[C@H]8O[C@@H](O[C@@H]9[C@@H](O)[C@H](N)C[C@H](N)[C@H]9O[C@H]9O[C@H](CN)[C@@H](O)[C@H](O)[C@H]9N)[C@H](O)[C@@H]8O[C@H]8OC(CN)[C@@H](O)[C@H](O)[C@H]8N)nn7)cc6)[nH]c5c4)[nH]c3c2)CC1 (stereo partly specified)" observed_property=ΔTm result_units=°C endpoint_value=21.7
compound="CN1CCN(c2ccc3nc(-c4ccc5nc(-c6ccc(OCCCCCCOCc7cn(C[C@H]8O[C@@H](O[C@@H]9[C@@H](O)[C@H](N)C[C@H](N)[C@H]9O[C@H]9O[C@H](CN)[C@@H](O)[C@H](O)[C@H]9N)[C@H](O)[C@@H]8O[C@H]8OC(CN)[C@@H](O)[C@H](O)[C@H]8N)nn7)cc6)[nH]c5c4)[nH]c3c2)CC1 (stereo partly specified)" observed_property=ΔTm result_units=°C endpoint_value=22.2

Now consider a different compound.
IN: Return ΔTm (reported value) for this compound: CN1CCN(c2ccc3nc(-c4ccc5nc(-c6ccc(OCCCCCCCCCCCCOCc7cn(C[C@H]8O[C@@H](O[C@@H]9[C@@H](O)[C@H](N)C[C@H](N)[C@H]9O[C@H]9O[C@H](CN)[C@@H](O)[C@H](O)[C@H]9N)[C@H](O)[C@@H]8O[C@H]8OC(CN)[C@@H](O)[C@H](O)[C@H]8N)nn7)cc6)[nH]c5c4)[nH]c3c2)CC1 (stereo partly specified)
OUT: 18.2

Numbers sourced from ChEMBL document CHEMBL3868633.
